B1: library; a variant is named by its letters at N, in order (parent)
chain: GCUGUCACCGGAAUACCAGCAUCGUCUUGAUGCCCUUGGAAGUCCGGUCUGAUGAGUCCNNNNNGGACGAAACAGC

variants of: B1; test: normalized RNA/DNA level with ligand (relative to sTRSVctl = 100) (log10 (% of sTRSVctl)); higher = less ribozyme self-cleavage, higher mRNA level; conditions: ligand concentration (+) RNA-Seq: 5 mM, HEK293T, reporter: mCherry (pCS4076), ligand present: yes
value type: normalized RNA/DNA level with ligand (log10)
One number for each entry.

Here are 3 variants together with their reported answers.
normalized RNA/DNA level with ligand (log10) measured on "UGAGC" = 1.93

normalized RNA/DNA level with ligand (log10) measured on "ACUCG" = 1.95

normalized RNA/DNA level with ligand (log10) measured on "UACUA" = 1.97

Report normalized RNA/DNA level with ligand (log10) for every entry below.
1. ACGGA
2. CGAUU

[1.95, 1.98]
